B1: NP_009172.2 (parent)
chain: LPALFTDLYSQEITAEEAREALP

variants of: B1; experiment: protein stability index of a GFP-peptide fusion (GPS, HEK-293T) (PSI 1-6); higher = more stable; details: c terminus: native;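 note: lentivirally expressed fusion library, cells FACS-sorted into six equal-sized GFP/DsRed ratio bins, PSI computed from sequencing read fractions per bin weighted by bin number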
measure: protein stability index

• L1C = 2.5
• E16V = 2.48
• E16Y = 2.51
• I13E = 3.25
• E12H = 3.39
• L1K = 1.72
• L4M = 3.19
• E12C = 3.19
• E20C = 2.38
• A3I = 2.43
• L1V = 2.59
• P2I = 2.37
• Y9P = 5.13
• P23E = 5
• P2N = 2.59
• P23N = 4.89
• S10R = 2.71
• I13H = 2.71
• T14N = 2.76
• Y9M = 3.13
• Q11L = 2.65
• E17G = 2.21
